Assay Name: Plasmodium falciparum growth inhibition, primary screen, strain 3D7, DAPI fluorescence, 100 nL (AID 1184);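 note: parasites grown inside human red blood cells in medium with human serum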
Conditions: P. falciparum 3D7 growth, 3 d, higher = more signal
z-score values, listed per item

Compound	z-score
CC(=O)OC(C/C=C\B1OC(C)(C)C(C)(C)O1)c1ccccc1 (stereo not drawn)	-1.41
CCN(CC)c1ccc(N2CC=CC34O[C@@H]5C=CCOC(=O)[C@@H]5[C@H]3C(=O)N(C(CO)C(C)C)[C@@H]4C2=O)cc1 (stereo partly drawn)	-0.45
NC(=O)NCC#Cc1ccc2c(c1)[C@]1(C(=O)N2)[C@H](c2ccc(OCCO)cc2)N2[C@H](c3ccccc3)[C@H](c3ccccc3)OC(=O)[C@H]2[C@@H]1C(=O)Nc1nc2ccccc2s1	-0.745
COCCOC(=O)N1C(=O)[C@@]2(c3cc(C#CC4(O)CCCCCC4)ccc31)[C@H](c1ccccc1OCCO)N1[C@H](c3ccccc3)[C@H](c3ccccc3)OC(=O)[C@H]1[C@@H]2C(=O)Nc1nc2ccccc2s1	-1.67
COc1ccc(C#Cc2ccc3c(c2)[C@]2(C(=O)N3)[C@H](c3ccc(O)cc3)N3[C@H](c4ccccc4)[C@H](c4ccccc4)OC(=O)[C@H]3[C@@H]2C(N)=O)cc1	-1.17
Cc1ccc(S[C@]2(C(=O)NCC(C)C)CC(=O)N(C(C)C)[C@@H]2c2ccc(CO)cc2)cc1	-1.79
C=CCOC(=O)[C@H]1[C@@H]2C(=O)O[C@@H](c3ccccc3)[C@@H](c3ccccc3)N2[C@@H](c2ccc(OCCOC(=O)[C@H]3C[C@H]4C(=O)N5CCC[C@H]5C(=O)N4[C@H]3c3cccc(OCCO)c3)cc2)[C@]12C(=O)Nc1ccccc12	-1.9
[N-]=[N+]=Nc1ccccc1[C@H]1OC(c2ccc(OCCCO)cc2)=N[C@@]1(Cc1ccccc1)C(N)=O	-1.96
O=C(NCc1ccccc1)[C@@H]1c2ccccc2C(=O)N(Cc2ccccc2Cl)[C@H]1c1ccc(CO)cc1	0.187
C=CCNC(=O)[C@@H]1[C@H]2C(=O)O[C@H](c3ccccc3)[C@H](c3ccccc3)N2[C@H](c2ccc(O)cc2)[C@@]12C(=O)Nc1ccc(C#Cc3ccc(OC)cc3)cc12	-0.107
CC(C)C(=C=CC[C@@H](O)c1ccc(CO)o1)CCO	-0.0113
Cc1ccc(N2C(=O)c3ccccc3[C@](C)(C(=O)NC3CC3)[C@@H]2c2ccc(CO)cc2)nc1	0.202
CCOC(=O)C[C@H]1[C@H](OC(=O)c2cc3ccccc3oc2=O)[C@@H](NC(=O)c2ccccc2)c2cc(OCCCO)ccc2N1C(=O)Cc1ccc(OC)cc1	-2.11
